Assay: Single-dose toxicokinetic and tolerability study of prodrugs in dogs
Type: in vivo, dog
Details: male, dog, plasma, 25 mg/kg, dog 2101M, day 8, Icb 25 mg/kg QD aqueous solution; read-out: C24h
VALUE_KIND: concentration at 24 h (nM)
Provide only the numeric value, understood in nM.

**Q:** Need concentration at 24 h of "COc1cnc(-n2cnc(C)n2)c2[nH]cc(C(=O)C(=O)N3CCN(C(=O)c4ccccc4)CC3)c12" , thanks.
**A:** 547

* * *

Assay: Single-dose toxicokinetic and tolerability study of prodrugs in dogs
Type: in vivo, dog
Details: Table 14: 240 mg/kg (190 IVa equiv.), Formulation Solution; Dogs #2201, #2202; 240 mg/kg
Description: A multi-phase study was conducted to evaluate the tolerability of the prodrug, Iab (monolysine salt) at dosages of 24, 90, or 240 mg/kg (free acid, molar equivalent to 19, 71, or 190 mg/kg of parent IVa, respectively) and the toxicokinetics of lab and IVa (4). Iab was administered to two female dogs/group once daily either as an aqueous solution (24 or 90 mg/kg) or dry-filled capsules (24, 90 [once and twice daily] or 240 mg/kg). […]
VALUE_KIND: Cmax
Just so you know, I need the unit written after the number.

**Q:** Need Cmax of "COc1ncc(OC)c2c(C(=O)C(=O)N3CCN(C(=O)c4ccccc4)CC3)c[nH]c12" , thanks.
**A:** 189 µM

* * *

Assay: IV and PO pharmacokinetic studies of prodrug salts (Iab, Ibb, Icb) in the monkey, with historical parent data
Type: in vivo, cynomolgus monkeys
Conditions: cynomolgus monkey, plasma; monkey, historical parent, IV 1 mg/kg; read-out: Vdss (L/kg), IV
Description: The IV and PO studies of Iab were conducted in a crossover fashion in three male cynomolgus monkeys (11±1.2 kg, Charles River Biomedical Research Foundation, Houston, Tex.). There was a two-week washout period between the IV and PO studies. In the IV study, Iab was infused via the femoral vein at 1.3 mg/kg (free acid, or 1.1 mg/kg of IVa equivalent) over 5 min at a constant rate of 0.1 mL/kg/min. The concentration of the dosing solution was 2.6 mg/mL, and the dosing volume was 0.5 mL/kg. […]
VALUE_KIND: Vd (L/kg)
Provide only the numeric value, understood in L/kg.

**Q:** Need Vd of "COc1ncc(OC)c2c(C(=O)C(=O)N3CCN(C(=O)c4ccccc4)CC3)c[nH]c12" , thanks.
**A:** 0.63

* * *

Test: Single-dose oral toxicokinetic study of prodrugs in rats
Format: in vivo, rat
Details: male, Sprague Dawley, rat, plasma, oral, 19 mg/kg (free acid); read-out: C24h
VALUE_KIND: concentration at 24 h

**Q:** Need concentration at 24 h of O=C(C(=O)N1CCN(C(=O)c2ccccc2)CC1)c1c[nH]c2c(-n3ccnn3)ncc(F)c12 [IVb] , thanks.
**A:** 48 nM

* * *

Assay: IV and PO pharmacokinetic studies of prodrug salts (Iab, Ibb, Icb) in the rat, with historical parent data
Type: in vivo, Sprague-Dawley rats
Details: Sprague-Dawley, plasma, historical parent, IV 1 mg/kg, read-out: t1/2 (hr), IV (converted)
VALUE_KIND: half-life (h)
Provide only the numeric value, understood in h.

**Q:** Need half-life of COc1ncc(OC)c2c(C(=O)C(=O)N3CCN(C(=O)c4ccccc4)CC3)c[nH]c12 [IVa] , thanks.
**A:** 2.4
